molecular target: AgRvs167; assay: SPOT peptide array binding signal intensity (averaged, normalized) (arbitrary units (background-subtracted, floor 0; scale differs between SH3 domains)); higher = stronger binding of the SH3 domain to the peptide
If the reported SPOT peptide array binding signal intensity equals or exceeds 5, assign Satisfied. If not, assign Not satisfied.

Worked examples follow.
[[record]]
binder = "PSRRAPLQLPQLVNK"
label = "Not satisfied"

[[record]]
binder = "MFLISPPASPPPEFD"
label = "Not satisfied"

[[record]]
binder = "RSRRSSFAYPQQVAI"
label = "Not satisfied"


Ask: In plain terms: is recorded SPOT peptide array binding signal intensity at least 5 for VQKRKLPLPGSIASA ?
Result: Not satisfied
